Where do these numbers come from? They come from ChEMBL document CHEMBL1153733.

Test system: Trichomonas vaginalis
assay-comment: Antitrichomonal activity against Trichomonas vaginalis after 48 hrs by trypan blue exclusion assay
Format: functional
Consider the following molecules; for each one, report its MIC.
Give the value, in units of µM, as a plain number.

GET /values?readout=MIC&item= `Cc1ncc([N+](=O)[O-])n1CCSC(=S)N1CCCCC1`
1

Similarly, `Cc1ncc([N+](=O)[O-])n1CCOC(=O)CCn1cncn1` ?
21.3

Another molecule: Cc1ncc([N+](=O)[O-])n1CCOC(=S)[S-].[Na+] [METRONIDAZOLE XANTHATE]
112

Would you mind doing `Cc1ncc([N+](=O)[O-])n1CCn1ccnc1` as well?
14.1
